- target.or.system: human CYP2D6, CYP2D6 (gene 1565) (UniProt P10635)
- Sequence (P10635 whole entry, looked up): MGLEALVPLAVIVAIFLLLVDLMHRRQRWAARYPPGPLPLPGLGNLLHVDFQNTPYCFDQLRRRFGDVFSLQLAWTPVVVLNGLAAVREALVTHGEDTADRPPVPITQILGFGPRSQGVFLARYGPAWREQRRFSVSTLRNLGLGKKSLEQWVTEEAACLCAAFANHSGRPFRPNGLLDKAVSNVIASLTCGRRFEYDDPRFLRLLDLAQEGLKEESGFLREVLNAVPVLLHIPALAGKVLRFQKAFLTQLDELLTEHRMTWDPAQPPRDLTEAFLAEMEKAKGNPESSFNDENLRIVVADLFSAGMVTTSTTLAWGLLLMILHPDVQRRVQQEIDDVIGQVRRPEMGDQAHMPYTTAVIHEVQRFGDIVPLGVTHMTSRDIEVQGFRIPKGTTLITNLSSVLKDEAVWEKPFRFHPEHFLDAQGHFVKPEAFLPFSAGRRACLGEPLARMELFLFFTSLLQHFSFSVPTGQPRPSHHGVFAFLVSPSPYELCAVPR
- procedure.details: NVS_ADME_hCYP2D6: NovaScreen (NVS) CYP450-related Enzyme Activity (ADME) Assay for human CYP2D6 (AID 2283107)
Activity calls are given as the source filed them. How the source made its calls: active means hit-call score of the fitted dose curve at least 0.9, where 1 is the maximum; inconclusive means response in the unintended direction; inactive means score below 0.9.
Log the outcome using a class from T for active, F for inactive

CCCCCCc1ccc(O)cc1O : T
O=c1[nH]c2ccc(S(=O)CCN3CCC(Cc4ccc(F)cc4)CC3)cc2o1 (stereo not given) : T
Cc1ccc(N)cc1O : T
Nc1ccc(Nc2ccccc2)cc1 : T

Next:
[in] Which outcome did this test record for the molecule CC(C)c1cccc(C(C)C)c1N1C(=O)c2ccc(O)cc2C1=O ?
[out] F

* * *

- Read-out: Broad substrate specificity ATP-binding cassette transporter ABCG2 (Homo sapiens)
- procedure.details: LTEA_HepaRG_ABCG2: Life Technologies and Expression Analysis (LTEA) Assay for ABC Transporter (ABCG2) using HepaRG (AID 2283465)
- test.parameters: mRNA level, 48 h; actives raise or lower the signal
Activity calls are given as the source filed them. Rule for the calls: active = hit-call score of the fitted dose curve at least 0.9, where 1 is the maximum; inactive = score below 0.9.
quantity.kind: AC50

CC(C)=CCC/C(C)=C/CO : inactive
CN(C)c1ccc(N=NS(=O)(=O)O)cc1 : inactive
C1=CCCC=CCCC=CCC1 : inactive
C=CCCCCCCCCC(=O)O : inactive
CCOc1cccc(-n2cc(C(=O)N3CCN(c4cc(C(=O)O)c5ccccc5c4)CC3)nc2-c2ccc(C)cc2)c1 : 85.6 µM (active)

Proceed to the following item.
Form: compound = Nc1nc2ncc(CNc3ccc(C(=O)N[C@@H](CCC(=O)O)C(=O)O)cc3)nc2c(=O)[nH]1 ; AC50 = inactive

* * *

- Read-out: solute carrier (SLCO1B1), SLCO1B1 (gene 10599)
- procedure.details: LTEA_HepaRG_SLCO1B1: Life Technologies and Expression Analysis (LTEA) Assay for solute carrier (SLCO1B1) using HepaRG (AID 2283530)
- test.parameters: mRNA level, 48 h; actives raise or lower the signal
The source made the active and inactive calls. Rule for the calls: active = hit-call score of the fitted dose curve at least 0.9, where 1 is the maximum; inactive = score below 0.9.
Log the outcome using a class from active, inactive

Some solved cases for reference:
O=c1n(CC2CO2)c(=O)n(CC2CO2)c(=O)n1CC1CO1 (stereo unspecified) : inactive
CC(O)CN(CCN(CC(C)O)CC(C)O)CC(C)O (stereo unspecified) : inactive
COC(=O)c1c(Cl)c(Cl)c(C(=O)OC)c(Cl)c1Cl : inactive

[in] Which outcome did this test record for the molecule Cc1[nH]cnc1C[C@H]1CCc2c(C)c3ccccc3n2C1=O ?
[out] active

[in] Which outcome did this test record for the molecule Cc1ccc(N)cc1O ?
[out] inactive

[in] Which outcome did this test record for the molecule COc1cccc(-c2ccc(/C=C\CN3CCCCCC3)cc2Cl)c1 ?
[out] active

* * *

- procedure.details: ATG_AP_2_CIS: Attagene CIS-FACTORIAL HepG2 Assay for human Activator Protein 2 (AP-2) (AID 2282932)
- test.parameters: HepG2 AP-2 cis-reporter, Attagene transcription factor profiling; actives raise or lower the signal
Calls of active or inactive are those of the source. Rule for the calls: active = hit-call score of the fitted dose curve at least 0.9, where 1 is the maximum; inactive = score below 0.9.
Log the outcome using a class from 1 (yes) (active), 0 (no) (inactive)

Some solved cases for reference:
Cc1ccc(S(=O)(=O)O)cc1C : 0 (no)
CNS(=O)(=O)c1cc(C(=O)N2CCC(CCN3C4CCC3CC(n3c(C)nc5ccccc53)C4)(c3cccc(F)c3)CC2)c(Cl)cc1F (stereo unspecified) : 0 (no)
COc1cccc(-c2ccc(/C=C\CN3CCCCCC3)cc2Cl)c1 : 0 (no)

[in] Which outcome did this test record for the compound CCCC(=O)OCC ?
[out] 0 (no)

[in] Which outcome did this test record for the compound COc1ccc(-n2nc(C(F)F)cc2-c2ccc(S(C)=O)cc2)cc1 (stereo unspecified) ?
[out] 0 (no)

[in] Which outcome did this test record for the compound CC(C)=CCC/C(C)=C/CO ?
[out] 0 (no)

[in] Which outcome did this test record for the compound Oc1ccc2c(c1)-c1ccccc1C2 ?
[out] 0 (no)
